experiment: Test Example 7: stability of mixed solution of Example 11; assay type: physicochemical; details: mixed solution of Example 11, room temperature, light-shielded; value immediately after mixing = 100%
Structures can show the parent of a compound that is named as a salt.
QUANTITY KIND: content after 24 hours (%)
Number in %, nothing else.

q: # content after 24 hours lookup, item CC(=O)N[C@@H](CS)C(=O)O
a: 98.3

q: Lookup O=C1O[C@H]([C@@H](O)CO)C(O)=C1O
a: 97.1

q: Lookup NC(=O)c1cccnc1 [Nicotinamide]
a: 96.6

q: Lookup O=C(O)CCCC[C@@H]1SC[C@@H]2NC(=O)N[C@@H]21
a: 97.9

q: Lookup Nc1nc2ncc(CNc3ccc(C(=O)N[C@@H](CCC(=O)O)C(=O)O)cc3)nc2c(=O)[nH]1
a: 96.4

q: Lookup CC(C)(CO)[C@@H](O)C(=O)NCCCO
a: 100.0

q: Lookup Cc1ncc(CO)c(CO)c1O.Cl [Vitamin B6, Pyridoxine hydrochloride]
a: 100.6

q: Lookup Cc1ncc(C[n+]2csc(CCO)c2C)c(N)n1 [Vitamin B1, Thiamine hydrochloride]
a: 99.4

// data source = patent US9861575B2
